Origin of values: patent US20230338555A1

Study Target: T1, human sortilin stably expressed on HEK 293 cells (HEK-SORT1 cells) (human, UniProt Q99523 78-831)
T1 sequence (looked up): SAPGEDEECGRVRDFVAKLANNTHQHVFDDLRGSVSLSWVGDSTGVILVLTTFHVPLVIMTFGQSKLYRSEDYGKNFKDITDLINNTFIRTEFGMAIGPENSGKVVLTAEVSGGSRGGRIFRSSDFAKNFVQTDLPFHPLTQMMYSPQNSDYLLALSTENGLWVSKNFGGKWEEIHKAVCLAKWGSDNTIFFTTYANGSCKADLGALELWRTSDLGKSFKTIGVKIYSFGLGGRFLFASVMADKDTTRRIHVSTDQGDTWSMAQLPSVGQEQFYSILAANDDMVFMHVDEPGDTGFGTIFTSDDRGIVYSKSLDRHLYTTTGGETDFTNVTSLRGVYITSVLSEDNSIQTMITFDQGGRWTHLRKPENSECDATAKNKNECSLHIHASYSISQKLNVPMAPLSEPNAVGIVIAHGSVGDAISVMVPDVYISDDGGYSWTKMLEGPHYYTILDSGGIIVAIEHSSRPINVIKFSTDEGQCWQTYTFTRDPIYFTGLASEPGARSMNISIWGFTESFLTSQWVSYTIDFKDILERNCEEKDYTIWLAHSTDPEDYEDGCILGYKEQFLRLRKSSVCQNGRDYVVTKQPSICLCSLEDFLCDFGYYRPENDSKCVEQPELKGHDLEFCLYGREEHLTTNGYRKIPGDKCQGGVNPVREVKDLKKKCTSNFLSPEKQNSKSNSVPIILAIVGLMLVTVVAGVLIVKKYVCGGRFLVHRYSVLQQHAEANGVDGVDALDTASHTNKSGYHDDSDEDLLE
Test Description: cell-based or functional assay
Ends that are not written are not given here.
Lab note: cut-off is 2000 MFI. Strictly less in Mean Fluorescence Intensity (MFI), uptake 37C-4C, at 882 nM is Met. Exactly 2000 MFI or more is Not met.

[[record]]
binder = "KPAPSGPSPGLYENKPRRPYIL (not fully specified (residue 1); also: X side chain clicked via BCN (triazole) and 6-aminohexanol linker to 5' end of oligonucleotide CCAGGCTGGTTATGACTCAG (MOE, 3'-Cy3))"
cat = "Not met"

[[record]]
binder = "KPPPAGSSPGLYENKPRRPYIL (not fully specified (residue 1); also: Cy3 label attached by BCN click to the azide) [Compound 17-AH-1492, Cy3-labeled extended neurotensin (eNT, …)]"
cat = "Met"

[[record]]
binder = "KAGSIKPPPAGSSPGLYENKPRRPYIL (not fully specified (residue 1); also: X side chain clicked via BCN (triazole) and 6-aminohexanol linker to 5' end of oligonucleotide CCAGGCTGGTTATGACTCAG (MOE, 3'-Cy3))"
cat = "Not met"

[[record]]
binder = "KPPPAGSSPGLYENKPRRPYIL (not fully specified (residue 1); also: X side chain clicked via BCN (triazole) and 6-aminohexanol linker to 5' end of oligonucleotide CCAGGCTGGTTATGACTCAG (MOE, 3'-Cy3))"
cat = "Not met"

